- assay system: human ACC2 (Homo sapiens, UniProt O00763)
- Construct: made in house; host or cells: insect cells (baculoviral expression system)
- Sequence (O00763 129-2458 limits assumed): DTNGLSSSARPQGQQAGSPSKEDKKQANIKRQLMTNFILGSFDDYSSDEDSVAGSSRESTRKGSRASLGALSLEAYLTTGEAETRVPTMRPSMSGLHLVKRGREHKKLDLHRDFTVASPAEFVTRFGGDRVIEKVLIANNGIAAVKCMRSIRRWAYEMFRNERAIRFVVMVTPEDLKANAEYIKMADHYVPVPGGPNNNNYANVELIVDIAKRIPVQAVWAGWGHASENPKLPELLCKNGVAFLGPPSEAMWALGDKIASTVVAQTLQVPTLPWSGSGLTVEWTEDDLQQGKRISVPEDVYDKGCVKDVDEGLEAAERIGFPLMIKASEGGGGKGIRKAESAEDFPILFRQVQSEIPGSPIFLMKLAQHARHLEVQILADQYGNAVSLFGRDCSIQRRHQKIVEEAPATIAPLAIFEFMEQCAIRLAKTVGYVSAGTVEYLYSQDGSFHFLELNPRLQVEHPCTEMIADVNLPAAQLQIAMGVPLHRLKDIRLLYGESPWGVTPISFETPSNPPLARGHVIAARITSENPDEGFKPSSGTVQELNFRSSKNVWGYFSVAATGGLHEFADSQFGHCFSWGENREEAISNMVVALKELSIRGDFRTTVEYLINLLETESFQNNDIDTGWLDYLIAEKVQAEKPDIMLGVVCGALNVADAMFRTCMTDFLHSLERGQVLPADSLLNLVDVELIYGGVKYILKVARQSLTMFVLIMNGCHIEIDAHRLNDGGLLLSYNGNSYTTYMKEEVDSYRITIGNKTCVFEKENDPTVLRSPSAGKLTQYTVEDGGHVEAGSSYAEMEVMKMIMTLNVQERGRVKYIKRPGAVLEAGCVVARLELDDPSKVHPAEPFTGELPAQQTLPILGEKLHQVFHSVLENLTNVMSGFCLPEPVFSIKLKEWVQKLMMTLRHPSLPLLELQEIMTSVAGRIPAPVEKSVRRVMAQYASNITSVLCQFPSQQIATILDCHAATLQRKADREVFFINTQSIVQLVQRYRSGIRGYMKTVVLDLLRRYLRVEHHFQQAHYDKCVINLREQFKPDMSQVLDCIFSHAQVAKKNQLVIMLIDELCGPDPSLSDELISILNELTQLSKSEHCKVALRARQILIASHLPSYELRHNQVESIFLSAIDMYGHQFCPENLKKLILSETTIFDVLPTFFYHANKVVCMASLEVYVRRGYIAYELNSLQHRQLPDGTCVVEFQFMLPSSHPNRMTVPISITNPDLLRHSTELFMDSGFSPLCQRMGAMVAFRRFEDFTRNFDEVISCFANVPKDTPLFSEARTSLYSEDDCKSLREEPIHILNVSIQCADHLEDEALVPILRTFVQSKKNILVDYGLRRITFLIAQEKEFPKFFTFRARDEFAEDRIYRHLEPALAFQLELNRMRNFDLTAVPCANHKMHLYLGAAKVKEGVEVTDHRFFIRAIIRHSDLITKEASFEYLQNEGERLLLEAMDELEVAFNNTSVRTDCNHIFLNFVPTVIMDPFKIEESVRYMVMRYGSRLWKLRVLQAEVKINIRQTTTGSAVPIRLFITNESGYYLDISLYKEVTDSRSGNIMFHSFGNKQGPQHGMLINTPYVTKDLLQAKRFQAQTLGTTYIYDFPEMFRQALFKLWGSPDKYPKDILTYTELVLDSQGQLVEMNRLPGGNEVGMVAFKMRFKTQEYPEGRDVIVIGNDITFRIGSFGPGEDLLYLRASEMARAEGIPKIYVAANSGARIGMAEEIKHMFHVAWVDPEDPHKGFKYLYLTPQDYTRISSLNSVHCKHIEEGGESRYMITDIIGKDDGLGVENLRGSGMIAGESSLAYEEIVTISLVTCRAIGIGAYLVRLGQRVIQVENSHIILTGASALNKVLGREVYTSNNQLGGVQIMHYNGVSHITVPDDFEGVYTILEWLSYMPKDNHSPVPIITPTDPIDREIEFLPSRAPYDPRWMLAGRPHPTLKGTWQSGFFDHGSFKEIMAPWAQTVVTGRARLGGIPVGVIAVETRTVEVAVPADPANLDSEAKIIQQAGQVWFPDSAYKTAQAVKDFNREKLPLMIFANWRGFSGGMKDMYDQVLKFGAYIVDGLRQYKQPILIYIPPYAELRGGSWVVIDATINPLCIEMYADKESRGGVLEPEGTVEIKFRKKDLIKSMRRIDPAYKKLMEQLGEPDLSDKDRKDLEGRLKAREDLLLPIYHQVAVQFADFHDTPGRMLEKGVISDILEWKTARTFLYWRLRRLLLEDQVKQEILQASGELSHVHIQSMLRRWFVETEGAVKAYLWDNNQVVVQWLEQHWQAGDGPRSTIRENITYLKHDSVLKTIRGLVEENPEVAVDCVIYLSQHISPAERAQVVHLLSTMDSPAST
- method: ACC2 assay, spectrophotometric 384 well assay (NADH-linked, coupled lactate dehydrogenase/pyruvate kinase)
- Assay type: biochemical
- condition summary: ACC2 assay; human ACC2 construct lacking 128 N-terminal amino acids; 25° C., 340 nm, 15 minutes; read-out: IC50
measured property: pIC50
Numbers only, as −log10 of the molar value.

CC(=O)N[C@@H](C)c1ccc(N2CC(Oc3cccc(N4CCC(C)CC4)n3)C2)cc1 6.66

Record pIC50 for all entries; do not skip any.
1. CCOc1ccc(OC2CN(c3ccc([C@H](C)NC(=O)N4CC(O)C4)cc3)C2)cc1
2. CC(=O)N[C@@H](C)c1ccc(N2CC(Oc3cccc(C4CCC4)n3)C2)cc1
3. CCC(=O)N[C@@H](C)c1ccc(N2CC(Oc3ccc(OCC4CC4)cc3)C2)cc1

1. 5.79
2. 6.66
3. 7.00

---

- assay system: human ACC2 (Homo sapiens)
- Construct: made in house; host or cells: insect cells (baculoviral expression system)
- method: ACC2 assay, spectrophotometric 384 well assay (NADH-linked, coupled lactate dehydrogenase/pyruvate kinase)
- Type: biochemical
- condition summary: ACC2 assay; human ACC2 construct lacking 128 N-terminal amino acids; 25° C., 340 nm, 15 minutes; read-out: IC50
measured property: IC50 (nM)
Numbers only, in nM.

# annotated cases, reported IC50 shown
compound	readout units	recorded measurement
COc1ccc(OC2CN(c3ccc([C@H](C)NC(=O)C4CC4)cc3)C2)cn1	nM	3370
CC(=O)N[C@@H](C)c1ccc(N2CC(Oc3ccc(C)cc3)C2)cc1	nM	610
CC(=O)N[C@@H](C)c1ccc(N2CC(Oc3ccnc(OCC(C)C)c3)C2)cc1	nM	60
CCOc1ccc(OC2CN(c3ccc([C@H](C)NC(=O)C(C)C)cc3)C2)cc1	nM	120
CCOc1ccc(OC2CN(c3ccc([C@H](C)NC(=O)c4csc(NC(C)=O)n4)cc3)C2)cc1	nM	610

Record IC50 for all entries; do not skip any.
1. COc1ccc(OC2CN(c3ccc([C@H](C)NC(=O)C4CC4)cc3)C2)c(F)c1
2. C[C@H](NC(=O)C1(C)CC1)c1ccc(N2CC(Oc3ccc(OCC4CC4)cc3)C2)cc1
3. CC(=O)N[C@@H](C)c1ccc(N2CC(Oc3cccc(OC4CCOC4)n3)C2)cc1 (stereo partly drawn)
4. CCOc1ccc(OC2CN(c3ccc([C@H](C)NC(=O)Cc4cncnc4)cc3)C2)cc1
5. CC(=O)N[C@@H](C)c1ccc(N2CC(Oc3ccc(C(F)(F)F)cn3)C2)cc1
6. CCOc1ccc(OC2CN(c3ccc([C@H](C)NC(=O)N(C)C)cc3)C2)c(F)c1
7. CC(=O)N[C@@H](C)c1ccc(N2CC(Oc3cccc(C(F)(F)F)n3)C2)cc1
8. CCOc1ccc(OC2CN(c3ccc([C@H](C)NC(=O)C(C)O)cc3)C2)cc1 (stereo partly drawn)

[3990, 120, 1750, 450, 810, 250, 60, 1720]

Record IC50 for all entries; do not skip any.
1. COCCOc1ccc(OC2CN(c3ccc([C@H](C)NC(=O)c4sc(NC(C)=O)nc4C)cc3)C2)cc1
2. CCOc1ccc(OC2CN(c3ccc([C@H](C)NC(=O)C(C)(F)F)cc3)C2)cc1

[130, 70]

Record IC50 for all entries; do not skip any.
1. CCOc1ccc(OC2CN(c3ccc([C@H](C)NC(=O)C(C)(C)F)cc3)C2)cc1
2. CCOc1ccc(OC2CN(c3ccc([C@H](C)NC(=O)c4sc(NC(C)=O)nc4C)cc3)C2)cc1

1: 280; 2: 50

---

Provide the reported pIC50 of each item.
- assay system: human ACC2 (Homo sapiens, UniProt O00763)
- Construct: made in house; host or cells: insect cells (baculoviral expression system)
- method: ACC2 assay, spectrophotometric 384 well assay (NADH-linked, coupled lactate dehydrogenase/pyruvate kinase)
- Assay type: biochemical
- condition summary: ACC2 assay; human ACC2 construct lacking 128 N-terminal amino acids; 25° C., 340 nm, 15 minutes; read-out: IC50
- Protocol: Spectrophotometric 384 Well Assay Malonyl CoA formation by acetyl CoA carboxylases is stoichometrically linked to the consumption of ATP. ACC2 activity is measured in a NADH-linked kinetic method measuring ADP generated during the ACC reaction using a coupled lactate dehydrogenase/pyruvate kinase reaction. For biological testing, a human ACC2 construct which lacks the 128 amino acids at the N-terminus for increased solubility (nt 385-6966 in Genbank entry AJ575592) is cloned. […]
Numbers only, as −log10 of the molar value.

# annotated cases, reported pIC50 shown
CC(=O)N[C@@H](C)c1ccc(N2CC(Oc3cccc(C4CCCC4)n3)C2)cc1 6.74
CCOc1ccc(OC2CN(c3ccc([C@H](C)NC(=O)C4(C)CC4)cc3)C2)cc1 6.64
CCOc1ccc(OC2CN(c3ccc([C@H](C)NC(=O)C4CCC4)cc3)C2)cc1 6.77

Okay, next one:
What value of pIC50 has been reported for the following compound? `CCOc1ccc(OC2CN(c3ccc([C@H](C)NC(=O)c4ccoc4C)cc3)C2)cc1`
6.09
